- test-summary: Retention of peptides in flat-bottomed polypropylene wells
- Assay type: physicochemical
- stated-conditions: flat-bottom wells; 500V scan
Ends that are not written are not given here.
Sorting guide: entries reporting Percent retention beneath 10% go in the TRUE pile, the rest go in the FALSE pile.

Query: Does N-TAMRA-Ser-Asp- Ser-Ala-Ser-Ser- Ser-Lys-Ser-C ({TAMRA}-SDSASSSKS) [Peptide 2DOS-3] have Percent retention strictly under 10%?
Result: FALSE

Query: Does N-TAMPA-Asp-Asp- Asp-Asp-Asp-Asp- Asp-Asp-Asp-C ({TAMRA}-DDDDDDDDD) [Peptide 2DOS-12] have Percent retention strictly under 10%?
Result: TRUE

Query: Does N-TAMPA-Asp-Asp- Ala-Asp-Ser-Asp- Lys-C ({TAMRA}-DDADSDK) [Peptide 2DOS-8] have Percent retention strictly under 10%?
Result: TRUE

Query: Does N-TAMRA-Ser-Asp- Ser-Asp-Ser-Asp- Ser-Asp-Ser-C ({TAMRA}-SDSDSDSDS) [Peptide 2DOS-11] have Percent retention strictly under 10%?
Result: TRUE

Query: Does N-TAMRA-Asp-Phe- Ala-Phe-Ser-Phe- Lys-C ({TAMRA}-DFAFSFK) [Peptide 2DOS-6] have Percent retention strictly under 10%?
Result: FALSE

Query: Does N-TAMRA-Phe-Asp- Phe-Ala-Phe-Ser- Phe-Lys-Phe-C ({TAMRA}-FDFAFSFKF) [Peptide 2DOS-2] have Percent retention strictly under 10%?
Result: FALSE

Query: Does N-TAMRA-Asp-Phe- Asp-Phe-Asp-Phe- Asp-C ({TAMRA}-DFDFDFD) [Peptide 2DOS-14] have Percent retention strictly under 10%?
Result: TRUE

Query: Does N-TAMRA-Phe-Asp- Phe-Asp-Phe-Asp- Phe-Asp-Phe-C ({TAMRA}-FDFDFDFDF) [Peptide 2DOS-10] have Percent retention strictly under 10%?
Result: FALSE

Query: Does N-TAMRA-Asp-Ser- Asp-Ser-Asp-Ser- Asp-C ({TAMRA}-DSDSDSD) [Peptide 2DOS-15] have Percent retention strictly under 10%?
Result: TRUE

Query: Does N-TAMPA-Asp-Asp- Asp-Asp-Asp-Asp- Asp-C ({TAMRA}-DDDDDDD) [Peptide 2DOS-16] have Percent retention strictly under 10%?
Result: TRUE

Query: Does N-TAMPA-Asp-Asp- Asp-Ala-Asp-Ser- Asp-Lys-Asp-C ({TAMRA}-DDDADSDKD) [Peptide 2DOS-4] have Percent retention strictly under 10%?
Result: TRUE

Query: Does N-TAMRA-Asp-Ser- Ala-Ser-Ser-Ser- Lys-C ({TAMRA}-DSASSSK) [Peptide 2DOS-7] have Percent retention strictly under 10%?
Result: FALSE

The values you see were collected from patent US20090192048A1.
